system: MS2 coat protein; experiment: apparent KD of MS2 coat protein, switch ON state; designed switch direction (-1 OFF switch, 1 ON switch): -1; higher = weaker reporter binding; settings: FMN input: 0 or 200 uM; Eterna round: R93 (includes R88 designs)
Short version: apparent KD of MS2 coat protein at least 40 nM is fulfilled, less is not fulfilled.

As a guide, the following entries are already answered.
{"SEQUENCE_STRING": "AAGAACUGAGGAUAUACAUAAUAAAAGAAAAGAAAGAAAGAACAUGAGGAUCACCCAUGUAGAAGGCGGAAGAA [Khaneferre Sobekhotep IV]", "TARGET_OR_SYSTEM": "MS2 coat protein", "CLASS_LABEL": "not fulfilled"}
{"SEQUENCE_STRING": "AAAGGACGAGGAUAUACAUGAGGAUCACCCAUGUAAAAAACAUAAUAAAAGAACUUAUGUAGAAGGCGUCCAAA [Meechl Ex3 2]", "TARGET_OR_SYSTEM": "MS2 coat protein", "CLASS_LABEL": "fulfilled"}
{"SEQUENCE_STRING": "ACGUAGAGAGGAUAUACGAACAUGUCAAAAGACGUGAAGGGACAUGAGGAUCACCCAUGUAGAAGGCUCUACGA [Mat - Exclusion 2 - JL mod - D8]", "TARGET_OR_SYSTEM": "MS2 coat protein", "CLASS_LABEL": "fulfilled"}
{"SEQUENCE_STRING": "AAAGGACAUGAGGAUCACCCAUGUGAGGAUAUGACGUAAAGAAAGAAAGAAGAAAUCGUCAGAAGGCACACCUA [Mat - Exclusion 1 - Eli mod - D69]", "TARGET_OR_SYSTEM": "MS2 coat protein", "CLASS_LABEL": "not fulfilled"}
{"SEQUENCE_STRING": "GGAUGCGUAGGAUAUACAUGAGGAUCACCCAUGUGAGAGAAAAAAGUGAGAAAGAAAAGUAGAAGGACGUGUCG [salish99-ex3-90]", "TARGET_OR_SYSTEM": "MS2 coat protein", "CLASS_LABEL": "not fulfilled"}

Now let's try a different one.
Does apparent KD of MS2 coat protein meet or surpass 40 nM for AAAAAGCGAGGAUAUACGAGUCAAAGAAAAGACAAAAGGGAACAUGAGGAUCACCCAUGUAGAAGGCGCAAAAA [Fiskers exclusion D2 62% 2] ?
not fulfilled
